- study-target: 1-deoxy-D-xylulose-5-phosphate synthase (paDXPS) (Pseudomonas aeruginosa, UniProt B7V7R4, DEL206-245/INS205GGGGGG)
- Construct: gene dxs; truncated paDXPS; residues 206 to 245 replaced with a six glycine unit
- Sequence (B7V7R4 whole entry, stated change not applied, the tested form may be a part): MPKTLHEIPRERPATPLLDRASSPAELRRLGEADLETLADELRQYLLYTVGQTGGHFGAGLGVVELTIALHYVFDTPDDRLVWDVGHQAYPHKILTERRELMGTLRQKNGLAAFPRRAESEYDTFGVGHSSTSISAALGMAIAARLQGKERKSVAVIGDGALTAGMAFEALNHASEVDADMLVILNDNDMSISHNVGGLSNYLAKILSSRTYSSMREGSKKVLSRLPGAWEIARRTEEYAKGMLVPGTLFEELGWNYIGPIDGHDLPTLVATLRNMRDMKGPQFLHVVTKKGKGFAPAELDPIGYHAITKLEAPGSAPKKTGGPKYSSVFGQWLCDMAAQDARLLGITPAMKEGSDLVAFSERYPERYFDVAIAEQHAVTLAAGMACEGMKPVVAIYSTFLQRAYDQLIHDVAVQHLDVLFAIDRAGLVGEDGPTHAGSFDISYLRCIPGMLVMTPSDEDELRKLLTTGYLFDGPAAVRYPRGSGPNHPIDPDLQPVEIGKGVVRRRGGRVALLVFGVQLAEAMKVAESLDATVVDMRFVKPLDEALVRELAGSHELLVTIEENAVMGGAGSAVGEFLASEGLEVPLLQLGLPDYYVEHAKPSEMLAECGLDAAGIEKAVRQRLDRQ
- assay-name: co-crystal structure ([…] Å); coupled spectrophotometric inhibition assay
- Type: biochemical
assay-endpoint: pIC50
Keep it numeric: pIC50 is minus log10 of the concentration in mol/L.

Request: Name the reported pIC50 value associated with the compound "Cc1ncc(Cc2cccc(CCO)c2)c(N)n1"
Response: 3.71

Data credit: paper PMC10504544
